target: SARS-CoV-2 Main Protease (SARS-CoV-2) (UniProt P0DTD1); details: 20.0 µM
Listed here are compounds together with their documented inhibition.
Kindly answer with a numeric value in %, unit omitted.

Worked set:
Enquiry: Suppose we examine the compound Cc1ccncc1NC(=O)CCc1ccc(F)cc1 ; what inhibition value has been reported?
Return: 1.95

Enquiry: Next compound: O=C(NCc1ccns1)Nc1cccc(CN2CCCC2=O)c1
Return: -0.28

Enquiry: Next compound: COc1ccccc1OCCNC(=O)c1cc(=O)[nH]c2cccc(F)c12
Return: 8.74

Enquiry: Next compound: CCC(=O)Nc1cccc(OC2CC(=O)N2)c1 (stereo not drawn)
Return: -4.99

Enquiry: Next compound: C=CC(=O)N(c1ccc(C(C)OC)cc1)C(C(=O)Nc1ccc(OC)cc1C)c1cccnc1 (stereo not drawn)
Return: 2.91

Enquiry: Next compound: C=CC(=O)N(c1cc(C(C)(C)C)n[nH]1)C(C(=O)Nc1c(C)cccc1CC)c1cccnc1 (stereo not drawn)
Return: 4.05

Enquiry: Next compound: C[C@H]1CN(Cc2ccccc2)CC[C@@H]1NC(=O)C(=O)NCc1ccccc1CN1CCCC[C@@H]1C (stereo in doubt)
Return: -2.35

Enquiry: Next compound: NC(=O)C[S@@+]([O-])C(c1ccccc1)c1ccccc1 (stereo in doubt)
Return: -1.76

Enquiry: Next compound: Cc1csc(C(=O)N/N=C/c2cccnc2)c1N
Return: -0.86

Enquiry: Next compound: CC(=O)N[C@@H](Cc1ccc(O)cc1)C(=O)NC(CN1CCN(C(=O)CCl)CC1)c1ccccc1 (stereo in doubt)
Return: 21.3

More entries:
Enquiry: Suppose we examine the compound Cc1ccc(NC(=O)Cc2cccc(Cl)c2)cn1 ; what inhibition value has been reported?
Return: 0.36

Enquiry: Next compound: CN1CCN(C(=O)CNc2c(S(N)(=O)=O)ccc3ccccc23)CC1
Return: -0.961

Enquiry: Next compound: CS(=O)(=O)c1ncc(Cl)c(C(=O)Nc2ccccc2Cc2ccccc2)n1
Return: 96.3

Enquiry: Next compound: Cc1cccc(CC(=O)Nc2cccnc2C#N)c1
Return: 8.4

Enquiry: Next compound: Cn1cc(S(N)(=O)=O)cc1CC(=O)Nc1cccc(C(=O)NCc2ccccn2)c1
Return: -21.5

Enquiry: Next compound: O=C(CC(=O)N1CCOCC1)NC1CCCCC1
Return: 19.8

Enquiry: Next compound: CC1(C)Cc2cccc(OCCNC(=O)c3cc(=O)[nH]c4ccc(F)cc34)c2O1
Return: 13.9

Enquiry: Next compound: Cn1nnnc1NC(=O)Cc1csc(C(C)(C)C)n1
Return: 1.85
